Measured pKd, listed per entry.
Molecular target: cyclophilin A (CYPA) (Homo sapiens)
Sequence (P62937 whole entry): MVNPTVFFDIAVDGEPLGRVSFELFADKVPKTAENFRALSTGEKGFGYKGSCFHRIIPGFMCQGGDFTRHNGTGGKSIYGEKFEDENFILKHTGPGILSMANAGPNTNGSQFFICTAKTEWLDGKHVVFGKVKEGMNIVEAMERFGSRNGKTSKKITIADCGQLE
Assay: CYPA-compound binary complex formation by SPR
Settings: read-out: CYPA Binding Affinity
From the text: In order to determine the affinity of compounds of the invention for cyclophilin A (CYPA), we employed surface plasmon resonance binding analysis using the following reagents, instruments and protocol as supplied by the instrument manufacturer. Reagents and Instrument • 1. Instrument: Biacore S200 (GE Healthcare Life Sciences) • 2. Running buffer: 1×HBS-P+ (1×HBS supplemented with 0.05% Tween20), pH7.4, and 2% DMSO. • 3. Ligand: CypA-Avi • 4. […]
pKd: −log10 of the molar value.
quantity: pKd

molecule | endpoint.value
CN(C(=O)C1CN(C(=O)CCl)C1)[C@@H](CC1CC1)C(=O)N[C@H]1Cc2cc(O)cc(c2)-c2ccc3c(C(C)(C)C#N)cn(c3c2)CC(C)(C)COC(=O)[C@@H]2CCCN(N2)C1=O [Compound 57] | < 4.82
CC(C)C(C(=O)NC1Cc2cc(O)cc(c2)-c2ccc3c(C(C)(C)C#N)cn(c3c2)CC(CF)COC(=O)C2CCCN(N2)C1=O)N(C)C(=O)C1CN(C(=O)CCl)C1 (mixture of isomers) [Compound 34] | 4.82 to 5.30
CC(C)[C@@H](C(=O)N[C@H]1Cc2cc(O)cc(c2)-c2ccc3c(Cc4ccccn4)cn(c3c2)C[C@H](C)COC(=O)[C@@H]2CCCN(N2)C1=O)N(C)C(=O)C1CN(C(=O)CCl)C1 [Compound 69] | ≥ 5.30
COc1ccc(-c2cn3c4cc(ccc24)-c2cc(O)cc(c2)C[C@H](NC(=O)[C@H](C(C)C)N(C)C(=O)C2CN(C(=O)CCl)C2)C(=O)N2CCC[C@H](N2)C(=O)OC[C@@H](C)C3)cc1 [Compound 50] | 4.82 to 5.30
CC(C)[C@@H](C(=O)N[C@H]1Cc2cc(O)cc(c2)-c2ccc3c(C4CCC4)cn(c3c2)C[C@H](C)COC(=O)[C@@H]2CCCN(N2)C1=O)N(C)C(=O)C1CN(C(=O)CCl)C1 [Compound 118] | < 4.82
